- System: Trichophyton rubrum
- experiment_summary: Antimicrobial activity against Trichophyton rubrum by micro-broth dilution method
- Assay type: functional
Catalogue of MIC80 readings, one per entry.
measurement_name: MIC80 (µg/mL)

>>> val("CC(C)N(Cc1ccc(Cl)cc1)CC(O)(Cn1cncn1)c1ccc(F)cc1F (stereo unspecified)")
0.25
>>> val("CCCN(Cc1ccccc1Cl)CC(O)(Cn1cncn1)c1ccc(F)cc1F (stereo unspecified)")
4
>>> val("CC(C)N(Cc1cccc(Cl)c1)CC(O)(Cn1cncn1)c1ccc(F)cc1F (stereo unspecified)")
0.25
>>> val("CCCN(Cc1ccc(F)cc1)CC(O)(Cn1cncn1)c1ccc(F)cc1F (stereo unspecified)")
1
>>> val("CC(C)N(Cc1ccccc1Br)CC(O)(Cn1cncn1)c1ccc(F)cc1F (stereo unspecified)")
0.0625
>>> val("CCc1ccc(CN(CC(O)(Cn2cncn2)c2ccc(F)cc2F)C(C)C)cc1 (stereo unspecified)")
1
>>> val("CCCCN(Cc1ccccc1F)CC(O)(Cn1cncn1)c1ccc(F)cc1F (stereo unspecified)")
1
>>> val("CCCN(Cc1ccccc1F)CC(O)(Cn1cncn1)c1ccc(F)cc1F (stereo unspecified)")
1
>>> val("CCCCN(Cc1ccc(C)cc1)CC(O)(Cn1cncn1)c1ccc(F)cc1F (stereo unspecified)")
1
>>> val("CCCCN(Cc1ccc(CC)cc1)CC(O)(Cn1cncn1)c1ccc(F)cc1F (stereo unspecified)")
4
>>> val("CCCN(Cc1ccccc1Br)CC(O)(Cn1cncn1)c1ccc(F)cc1F (stereo unspecified)")
1
>>> val("CCCCN(Cc1ccc(Br)cc1)CC(O)(Cn1cncn1)c1ccc(F)cc1F (stereo unspecified)")
0.25
>>> val("CCCCN(Cc1cccc(F)c1)CC(O)(Cn1cncn1)c1ccc(F)cc1F (stereo unspecified)")
1
>>> val("CCCCN(Cc1ccccc1Br)CC(O)(Cn1cncn1)c1ccc(F)cc1F (stereo unspecified)")
1
>>> val("CCCCN(Cc1ccccc1C)CC(O)(Cn1cncn1)c1ccc(F)cc1F (stereo unspecified)")
1
>>> val("CCCN(Cc1ccc(Br)cc1)CC(O)(Cn1cncn1)c1ccc(F)cc1F (stereo unspecified)")
0.25
>>> val("Cc1ccccc1CN(CC(O)(Cn1cncn1)c1ccc(F)cc1F)C(C)C (stereo unspecified)")
0.25
>>> val("C[C@@H](c1ncncc1F)[C@](O)(Cn1cncn1)c1ccc(F)cc1F")
0.0625
>>> val("CC(C)N(Cc1ccccc1F)CC(O)(Cn1cncn1)c1ccc(F)cc1F (stereo unspecified)")
1
>>> val("CC(C)N(Cc1ccc(Br)cc1)CC(O)(Cn1cncn1)c1ccc(F)cc1F (stereo unspecified)")
0.0625
>>> val("CC(C)N(Cc1ccccc1Cl)CC(O)(Cn1cncn1)c1ccc(F)cc1F (stereo unspecified)")
0.25

* * *

Each entry below carries its recorded MIC80.
- Test system: Trichophyton rubrum
- experiment_summary: Antimicrobial activity against Trichophyton rubrum by micro-broth dilution method
- Format: functional
measurement_name: MIC80 (µg/mL)

>>> val("CC(C)N(Cc1ccc(F)cc1)CC(O)(Cn1cncn1)c1ccc(F)cc1F (stereo not drawn)")
0.25
>>> val("Cc1ccc(CN(CC(O)(Cn2cncn2)c2ccc(F)cc2F)C(C)C)cc1 (stereo not drawn)")
0.0625
>>> val("CCCN(Cc1ccc([N+](=O)[O-])cc1)CC(O)(Cn1cncn1)c1ccc(F)cc1F (stereo not drawn)")
0.25
>>> val("CCCN(Cc1ccc(CC)cc1)CC(O)(Cn1cncn1)c1ccc(F)cc1F (stereo not drawn)")
1
>>> val("CC(C)N(Cc1ccc([N+](=O)[O-])cc1)CC(O)(Cn1cncn1)c1ccc(F)cc1F (stereo not drawn)")
0.25
>>> val("CCCCN(Cc1ccc([N+](=O)[O-])cc1)CC(O)(Cn1cncn1)c1ccc(F)cc1F (stereo not drawn)")
0.25
>>> val("CCCN(Cc1ccccc1C)CC(O)(Cn1cncn1)c1ccc(F)cc1F (stereo not drawn)")
4
>>> val("C[C@@H]1[C@H](O)[C@@H](C)/C=C/C=C/C=C/C=C/C=C/C=C/C=C/[C@H](O[C@@H]2O[C@H](C)[C@@H](O)[C@H](N)[C@@H]2O)C[C@@H]2O[C@](O)(C[C@@H](O)C[C@@H](O)[C@H](O)CC[C@@H](O)C[C@@H](O)CC(=O)O[C@H]1C)C[C@H](O)[C@H]2C(=O)O")
2

* * *

- Test system: Nannizzia gypsea
- experiment_summary: Antimicrobial activity against Microsporum gypseum by micro-broth dilution method
- Type: functional
Property: MIC80; scope: individual molecules
measurement_name: MIC80 (µg/mL)

>>> val("CC(C)N(Cc1cccc(F)c1)CC(O)(Cn1cncn1)c1ccc(F)cc1F (stereo not given)")
0.0625
>>> val("CC(C)N(Cc1ccc(Cl)cc1Cl)CC(O)(Cn1cncn1)c1ccc(F)cc1F (stereo not given)")
1
>>> val("CCCCN(Cc1ccc(Br)cc1)CC(O)(Cn1cncn1)c1ccc(F)cc1F (stereo not given)")
1
>>> val("CCCCN(Cc1ccccc1C)CC(O)(Cn1cncn1)c1ccc(F)cc1F (stereo not given)")
0.0156
>>> val("OC(Cn1cncn1)(Cn1cncn1)c1ccc(F)cc1F")
0.25
>>> val("CCCN(Cc1ccccc1Cl)CC(O)(Cn1cncn1)c1ccc(F)cc1F (stereo not given)")
0.0156
>>> val("CCCCN(Cc1ccccc1)CC(O)(Cn1cncn1)c1ccc(F)cc1F (stereo not given)")
0.0156
>>> val("CCCN(Cc1cccc(F)c1)CC(O)(Cn1cncn1)c1ccc(F)cc1F (stereo not given)")
0.0625
>>> val("CCCN(Cc1ccc(F)cc1)CC(O)(Cn1cncn1)c1ccc(F)cc1F (stereo not given)")
0.0039
>>> val("CCCCN(Cc1ccc(F)cc1)CC(O)(Cn1cncn1)c1ccc(F)cc1F (stereo not given)")
0.0156

* * *

- System: Candida tropicalis
- experiment_summary: Antimicrobial activity against Candida tropicalis by micro-broth dilution method
- Assay type: functional
Listing of entries alongside the reported MIC80.
measurement_name: MIC80

>>> val("CCCN(Cc1cccc(F)c1)CC(O)(Cn1cncn1)c1ccc(F)cc1F (stereo not given)")
"0.25 µg/mL"
>>> val("CCCCN(Cc1ccc([N+](=O)[O-])cc1)CC(O)(Cn1cncn1)c1ccc(F)cc1F (stereo not given)")
"0.0625 µg/mL"
>>> val("CCCN(Cc1ccccc1C)CC(O)(Cn1cncn1)c1ccc(F)cc1F (stereo not given)")
"0.0625 µg/mL"
>>> val("CCCCN(Cc1ccc(CC)cc1)CC(O)(Cn1cncn1)c1ccc(F)cc1F (stereo not given)")
"1 µg/mL"
>>> val("CC(C)N(Cc1ccccc1F)CC(O)(Cn1cncn1)c1ccc(F)cc1F (stereo not given)")
"0.25 µg/mL"

* * *

- Test system: Trichophyton rubrum
- experiment_summary: Antimicrobial activity against Trichophyton rubrum by micro-broth dilution method
- Type: functional
Note to self: MIC80 under 1 µg/mL means TRUE, ties and anything higher get FALSE.

>>> assigned_label("CC(C)N(Cc1ccccc1)CC(O)(Cn1cncn1)c1ccc(F)cc1F (centres undefined)")
"TRUE"
>>> assigned_label("CC(C)N(Cc1ccc(Cl)cc1Cl)CC(O)(Cn1cncn1)c1ccc(F)cc1F (centres undefined)")
"TRUE"
>>> assigned_label("CC(=O)N1CCN(c2ccc(OCC3COC(Cn4ccnc4)(c4ccc(Cl)cc4Cl)O3)cc2)CC1 (centres undefined) [KETOCONAZOLE]")
"TRUE"
>>> assigned_label("CCC(C)n1ncn(-c2ccc(N3CCN(c4ccc(OCC5COC(Cn6cncn6)(c6ccc(Cl)cc6Cl)O5)cc4)CC3)cc2)c1=O (centres undefined) [ITRACONAZOLE]")
"TRUE"
>>> assigned_label("CCCN(Cc1cccc(Cl)c1)CC(O)(Cn1cncn1)c1ccc(F)cc1F (centres undefined)")
"FALSE"
>>> assigned_label("OC(Cn1cncn1)(Cn1cncn1)c1ccc(F)cc1F [FLUCONAZOLE]")
"FALSE"

* * *

- Tested on: Nannizzia gypsea
- experiment_summary: Antimicrobial activity against Microsporum gypseum by micro-broth dilution method
- Format: functional
Rule: MIC80 below 0.02 µg/mL gives 1 (yes). Equal to or above 0.02 µg/mL gives 0 (no).

>>> assigned_label("CCCN(Cc1cccc(Cl)c1)CC(O)(Cn1cncn1)c1ccc(F)cc1F (stereo not given)")
"0 (no)"
>>> assigned_label("CCCN(Cc1ccccc1)CC(O)(Cn1cncn1)c1ccc(F)cc1F (stereo not given)")
"1 (yes)"
>>> assigned_label("CC(C)N(Cc1ccccc1)CC(O)(Cn1cncn1)c1ccc(F)cc1F (stereo not given)")
"1 (yes)"
>>> assigned_label("CCCN(Cc1ccccc1C)CC(O)(Cn1cncn1)c1ccc(F)cc1F (stereo not given)")
"1 (yes)"
>>> assigned_label("CCCN(Cc1ccccc1F)CC(O)(Cn1cncn1)c1ccc(F)cc1F (stereo not given)")
"1 (yes)"
>>> assigned_label("CCCCN(Cc1ccc(Cl)cc1Cl)CC(O)(Cn1cncn1)c1ccc(F)cc1F (stereo not given)")
"0 (no)"
>>> assigned_label("CCCN(Cc1ccc([N+](=O)[O-])cc1)CC(O)(Cn1cncn1)c1ccc(F)cc1F (stereo not given)")
"1 (yes)"
>>> assigned_label("CCC(C)n1ncn(-c2ccc(N3CCN(c4ccc(OCC5COC(Cn6cncn6)(c6ccc(Cl)cc6Cl)O5)cc4)CC3)cc2)c1=O (stereo not given) [ITRACONAZOLE]")
"0 (no)"
>>> assigned_label("CCCCN(Cc1ccc(CC)cc1)CC(O)(Cn1cncn1)c1ccc(F)cc1F (stereo not given)")
"0 (no)"
>>> assigned_label("CCCCN(Cc1ccccc1Cl)CC(O)(Cn1cncn1)c1ccc(F)cc1F (stereo not given)")
"0 (no)"

Recorded values, source ChEMBL document CHEMBL1153921.
